Tested on: MCF7
Assay: Cytotoxicity against human MCF7 cells assessed as reduction in cell viability after 48 hrs by MTS assay
Type: functional, cell-based
Settings: MCF7, 48 h
Property Label: pIC50
Numbers only, as −log10 of the molar value.

Example results:
COc1ccc(C(=O)C[n+]2cn(CCCN3C[C@@H]4Cc5ccc(Br)cc5[C@@H]4c4cccc(OC)c43)c3cc(C)c(C)cc32)cc1.[Br-]: 6.46
COc1ccc(C(=O)C[n+]2cn(CCC(=O)N3C[C@@H]4Cc5ccccc5[C@@H]4c4cccc(OC)c43)c3cc(C)c(C)cc32)cc1: 5.60
COc1cccc2c1N(C(=O)CCn1c(C)[n+](CC(=O)c3ccc4ccccc4c3)c3ccccc31)C[C@@H]1Cc3ccccc3[C@H]21: 5.84
COc1cccc2c1N(CCCn1c(C)[n+](Cc3ccc4ccccc4c3)c3ccccc31)C[C@@H]1Cc3ccc(Br)cc3[C@H]21: 6.04
COc1cccc2c1N(C(=O)CCn1c[n+](Cc3ccc4ccccc4c3)c3cc(C)c(C)cc31)C[C@@H]1Cc3ccccc3[C@H]21: 6.03

--- query ---
What value of pIC50 has been recorded for this entry: COc1ccc(C(=O)C[n+]2c(C)n(CCCN3C[C@@H]4Cc5ccc(Br)cc5[C@@H]4c4cccc(OC)c43)c3ccccc32)cc1
6.00

====

Task for the reader: assign each of the following compounds its reported pIC50.
System: MCF7
Assay: Cytotoxicity against human MCF7 cells assessed as reduction in cell viability after 48 hrs by MTS assay
Assay type: functional, cell-based
Details: MCF7, 48 h
Give bare numbers, as −log10 of the molar value.

See these solved cases before continuing.
COc1cccc2c1N(CCCn1c[n+](Cc3ccc(C)cc3)c3cc(C)c(C)cc31)C[C@@H]1Cc3ccc(Br)cc3[C@H]21.[Br-]: 6.17
COc1cccc2c1N(CCCn1c(C)[n+](Cc3ccc(C)cc3)c3ccccc31)C[C@@H]1Cc3ccccc3[C@H]21: 5.83
COc1cc2c(cc1OC)[C@@H]1c3cccc(OC)c3N(C(=O)CCn3c(C)[n+](CC(=O)c4ccc5ccccc5c4)c4ccccc43)C[C@@H]1C2: 5.33

Hey, quick one: what's pIC50 for each of these?
1. COc1cccc2c1N(C(=O)CCn1c[n+](CC(=O)c3ccc4ccccc4c3)c3cc(C)c(C)cc31)C[C@@H]1Cc3ccccc3[C@H]21
2. COc1cccc2c1N(C(=O)CCn1c(C)[n+](CC(=O)c3ccc4ccccc4c3)c3ccccc31)C[C@@H]1Cc3ccc(Br)cc3[C@H]21

1. 6.00
2. 5.84

====

Tested on: SW480
Assay: Cytotoxicity against human SW480 cells assessed as reduction in cell viability after 48 hrs by MTS assay
Format: functional, cell-based
Settings: SW480, 48 h
Task for the reader: assign each of the following molecules its reported IC50.
One number for each entry, in µM.

Study these solved cases before continuing.
COc1cccc2c1N(CCCn1c[n+](CC(=O)c3ccc4ccccc4c3)c3cc(C)c(C)cc31)C[C@@H]1Cc3ccc(Br)cc3[C@H]21: 4.26
COc1cc2c(cc1OC)[C@@H]1c3cccc(OC)c3N(CCCn3c(C)[n+](Cc4ccc(C)cc4)c4ccccc43)C[C@@H]1C2: 3.51

Now consider the entry below.
Param readout= IC50; system= SW480; entry= COc1cccc2c1N(C(=O)CCn1c(C)[n+](CC(=O)c3ccc4ccccc4c3)c3ccccc31)C[C@@H]1Cc3ccc(Br)cc3[C@H]21 ; returns value.
1.75

====

Test system: MCF7
Assay: Cytotoxicity against human MCF7 cells assessed as reduction in cell viability after 48 hrs by MTS assay
Assay type: functional, cell-based
Settings: MCF7, 48 h
Property Label: pIC50
One number for each entry, as −log10 of the molar value.

COc1ccc(C(=O)C[n+]2cn(CCCN3C[C@@H]4Cc5ccccc5[C@@H]4c4cccc(OC)c43)c3cc(C)c(C)cc32)cc1: 5.90
COc1cc2c(cc1OC)[C@@H]1c3cccc(OC)c3N(CCCn3c(C)[n+](Cc4ccc(C)cc4)c4ccccc43)C[C@@H]1C2: 5.26
COc1cccc2c1N(C(=O)CCn1c(C)[n+](Cc3ccc4ccccc4c3)c3ccccc31)C[C@@H]1Cc3ccccc3[C@H]21: 6.02
COc1cccc2c1N(CCCn1c[n+](Cc3ccc4ccccc4c3)c3cc(C)c(C)cc31)C[C@@H]1Cc3ccccc3[C@H]21: 6.04

Fill in pIC50 for each of the 5 compounds listed.
1. COc1cccc2c1N(CCCn1c[n+](Cc3ccc(C)cc3)c3cc(C)c(C)cc31)C[C@@H]1Cc3ccccc3[C@H]21
2. COc1ccc(C(=O)C[n+]2cn(CCCN3C[C@@H]4Cc5cc(OC)c(OC)cc5[C@@H]4c4cccc(OC)c43)c3cc(C)c(C)cc32)cc1
3. COc1cccc2c1N(C(=O)CCn1c[n+](Cc3ccc4ccccc4c3)c3cc(C)c(C)cc31)C[C@@H]1Cc3ccc(Br)cc3[C@H]21
4. COc1cc2c(cc1OC)[C@@H]1c3cccc(OC)c3N(CCCn3c(C)[n+](Cc4ccc5ccccc5c4)c4ccccc43)C[C@@H]1C2
5. COc1ccc(C(=O)C[n+]2c(C)n(CCCN3C[C@@H]4Cc5cc(OC)c(OC)cc5[C@@H]4c4cccc(OC)c43)c3ccccc32)cc1

1: 6.17; 2: 5.67; 3: 5.98; 4: 5.97; 5: 5.47

====

Tested on: SW480
Assay: Cytotoxicity against human SW480 cells assessed as reduction in cell viability after 48 hrs by MTS assay
Type: functional, cell-based
Settings: SW480, 48 h
Property Label: IC50 (nM)
Numbers only, in nM.

Record excerpt, results attached:
COc1cccc2c1N(CCCn1c(C)[n+](Cc3ccc(C)cc3)c3ccccc31)C[C@@H]1Cc3ccc(Br)cc3[C@H]21: 1620
COc1cccc2c1N(CCCn1c[n+](Cc3ccc(C)cc3)c3cc(C)c(C)cc31)C[C@@H]1Cc3ccccc3[C@H]21: 560
COc1cc2c(cc1OC)[C@@H]1c3cccc(OC)c3N(CCCn3c[n+](Cc4ccc(C)cc4)c4cc(C)c(C)cc43)C[C@@H]1C2: 2000

Below is a list of compounds. For each, state its recorded IC50.
1. COc1cccc2c1N(C(=O)CCn1c(C)[n+](Cc3ccc(C)cc3)c3ccccc31)C[C@@H]1Cc3ccccc3[C@H]21
2. COc1cccc2c1N(CCCn1c(C)[n+](Cc3ccc(C)cc3)c3ccccc31)C[C@@H]1Cc3ccccc3[C@H]21
3. COc1cccc2c1N(C(=O)CCn1c[n+](Cc3ccc4ccccc4c3)c3cc(C)c(C)cc31)C[C@@H]1Cc3ccccc3[C@H]21
4. COc1cccc2c1N(CCCn1c(C)[n+](CC(=O)c3ccc4ccccc4c3)c3ccccc31)C[C@@H]1Cc3ccc(Br)cc3[C@H]21
5. COc1ccc(C(=O)C[n+]2c(C)n(CCC(=O)N3C[C@@H]4Cc5cc(OC)c(OC)cc5[C@@H]4c4cccc(OC)c43)c3ccccc32)cc1
6. COc1cccc2c1N(C(=O)CCn1c[n+](CC(=O)c3ccc4ccccc4c3)c3cc(C)c(C)cc31)C[C@@H]1Cc3ccccc3[C@H]21

1: 1570; 2: 1660; 3: 970; 4: 1260; 5: 15400; 6: 1350

====

System: NCM460
Assay: Cytotoxicity against human NCM460 cells assessed as reduction in cell viability after 48 hrs by MTS assay
Assay type: cell-based
Conditions: NCM460, 48 h
Property Label: IC50 (µM)
One number for each entry, in µM.

Enter reported IC50 observed with NCM460 for COc1cccc2c1N(CCCn1c[n+](Cc3ccc(C)cc3)c3cc(C)c(C)cc31)C[C@@H]1Cc3ccc(Br)cc3[C@H]21.[Br-]
1.97

====

I'd be grateful if you could share measured pIC50 for these entries.
Assay: Cytotoxicity against human SMMC-7221 cells assessed as reduction in cell viability after 48 hrs by MTS assay
Assay type: functional, cell-based
Details: SMMC-7221, 48 h
One number for each entry, as −log10 of the molar value.

Okay, here is my list. What is pIC50 for each of these?
1. COc1cccc2c1N(C(=O)CCn1c[n+](Cc3ccc4ccccc4c3)c3cc(C)c(C)cc31)C[C@@H]1Cc3ccc(Br)cc3[C@H]21
2. COc1cccc2c1N(CCCn1c[n+](Cc3ccc4ccccc4c3)c3cc(C)c(C)cc31)C[C@@H]1Cc3ccccc3[C@H]21
3. COc1ccc(C(=O)C[n+]2cn(CCCN3C[C@@H]4Cc5ccccc5[C@@H]4c4cccc(OC)c43)c3cc(C)c(C)cc32)cc1
4. COc1cccc2c1N(CCCn1c[n+](Cc3ccc4ccccc4c3)c3cc(C)c(C)cc31)C[C@@H]1Cc3ccc(Br)cc3[C@H]21
5. COc1ccc(C(=O)C[n+]2c(C)n(CCCN3C[C@@H]4Cc5ccc(Br)cc5[C@@H]4c4cccc(OC)c43)c3ccccc32)cc1
6. COc1cccc2c1N(C(=O)CCn1c(C)[n+](Cc3ccc(C)cc3)c3ccccc31)C[C@@H]1Cc3ccccc3[C@H]21

5.96
6.07
5.85
5.67
6.03
5.69

The following compounds each have a reported value; give each one's pIC50.
1. COc1cccc2c1N(C(=O)CCn1c(C)[n+](Cc3ccc4ccccc4c3)c3ccccc31)C[C@@H]1Cc3ccccc3[C@H]21
2. COc1cc2c(cc1OC)[C@@H]1c3cccc(OC)c3N(CCCn3c(C)[n+](CC(=O)c4ccc5ccccc5c4)c4ccccc43)C[C@@H]1C2
3. COc1cccc2c1N(C(=O)CCn1c[n+](CC(=O)c3ccc4ccccc4c3)c3cc(C)c(C)cc31)C[C@@H]1Cc3ccccc3[C@H]21

5.84
5.26
5.95

So what's the measured pIC50 for this one? COc1ccc(C(=O)C[n+]2c(C)n(CCC(=O)N3C[C@@H]4Cc5ccccc5[C@@H]4c4cccc(OC)c43)c3ccccc32)cc1
5.34

These entries and their values trace back to ChEMBL document CHEMBL4373640.
